Biological target: CDK2/Cyclin A (Homo sapiens)
Construct: purchased Invitrogen PV6290
Assay: Enzymatic assay for CDK2 (FRET based LANCE Ultra kinase assay)
Format: biochemical
Conditions: read-out: CDK2 enzymatic activity (IC50 range)
value_type: IC50

// below: answered molecules
[[record]]
chem_smiles = "Cc1ccc(CNc2nc(N3CCC(N)CC3)nc3c(C(C)C)cnn23)c(-c2cc3ccccc3[nH]2)c1"
obs_value = "100 to 1000 nM"

[[record]]
chem_smiles = "CC(C)c1cnn2c(NCc3c(F)cccc3-n3cccn3)nc(N3CCC(N)CC3)nc12"
obs_value = "100 to 1000 nM"

[[record]]
chem_smiles = "CC(C)c1cnn2c(NCc3c(Cl)cccc3-n3cc4c(n3)CCNC4=O)nc(N3CCC(N)CC3)nc12"
obs_value = "> 1000 nM"


Consider the molecule shown here: CC(C)c1cnn2c(N[C@@H](C)c3ccccc3-n3cc(N4CCNCC4)cn3)nc(N3CCC(N)CC3)nc12 What is its recorded IC50?
> 1000 nM

###

Target: CDK1/Cyclin B (Homo sapiens)
Construct: purchased Invitrogen PR4768C
Sequence (P06493 whole entry): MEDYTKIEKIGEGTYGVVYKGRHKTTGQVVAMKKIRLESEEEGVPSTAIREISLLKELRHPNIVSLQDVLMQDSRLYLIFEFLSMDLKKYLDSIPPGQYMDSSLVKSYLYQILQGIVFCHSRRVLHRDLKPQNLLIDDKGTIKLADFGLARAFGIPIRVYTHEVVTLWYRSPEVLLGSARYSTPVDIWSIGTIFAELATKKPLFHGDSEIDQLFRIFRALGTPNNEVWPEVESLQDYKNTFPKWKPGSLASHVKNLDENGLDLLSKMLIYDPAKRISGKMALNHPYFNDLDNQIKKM
Sequence (P14635 whole entry partner): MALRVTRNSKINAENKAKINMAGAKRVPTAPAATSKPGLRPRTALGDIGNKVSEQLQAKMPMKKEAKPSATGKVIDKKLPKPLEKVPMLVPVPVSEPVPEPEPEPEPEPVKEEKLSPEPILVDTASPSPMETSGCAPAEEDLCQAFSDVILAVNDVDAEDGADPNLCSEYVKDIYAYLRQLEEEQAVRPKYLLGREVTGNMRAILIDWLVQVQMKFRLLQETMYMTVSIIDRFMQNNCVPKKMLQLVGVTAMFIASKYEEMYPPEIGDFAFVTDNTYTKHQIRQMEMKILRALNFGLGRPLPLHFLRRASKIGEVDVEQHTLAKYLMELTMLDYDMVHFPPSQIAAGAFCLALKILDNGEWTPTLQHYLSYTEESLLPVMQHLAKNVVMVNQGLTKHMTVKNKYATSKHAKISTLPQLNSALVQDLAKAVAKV
Test: Enzymatic assay for CDK1 (FRET based LANCE Ultra kinase assay)
Assay type: biochemical
Details: read-out: CDK1 enzymatic activity (IC50 range)
Reported IC50 by item:

// below: answered molecules
[[record]]
molecule = "CC(C)c1cnn2c(NCc3ccccc3-n3cc4cc(F)ccc4n3)nc(N3CCC(N)CC3)nc12 [Compound 108]"
obs_value = "100 to 1000 nM"

[[record]]
molecule = "CC(C)c1cnn2c(NCc3ccccc3-c3cc4ccccc4[nH]3)nc(N3CCCC(N)C3)nc12 (racemic) [Compound 125]"
obs_value = "> 1000 nM"

[[record]]
molecule = "CC(C)c1cnn2c(NCc3ccccc3-c3ccc4ccccc4n3)nc(NCC3CCNCC3O)nc12 (stereo not shown) [Compound 222]"
obs_value = "> 1000 nM"

[[record]]
molecule = "CC(C)c1cnn2c(NCc3ccccc3-n3cccn3)nc(Nc3ccc(C4CCNCC4)cn3)nc12 [Compound 169]"
obs_value = "> 1000 nM"

[[record]]
molecule = "CC(C)c1cnn2c(NCc3ccccc3-n3cccn3)nc(N3CCC(C)(N)CC3)nc12 [Compound 27]"
obs_value = "100 to 1000 nM"


Any idea what IC50 came out for CC(C)c1cnn2c(NCc3ccccc3-n3cccn3)nc(-c3cccc(C4CCNCC4)c3)nc12 [Compound 165] on CDK1/Cyclin B (Homo sapiens)?
> 1000 nM

Any idea what IC50 came out for CC(C)c1cnn2c(NCc3c(Cl)cccc3-c3ccc4[nH]cnc4c3)nc(N3CCC(N)CC3)nc12 [Compound 136] on CDK1/Cyclin B (Homo sapiens)?
> 1000 nM

###

Molecular target: CDK5/p25NCK (Homo sapiens)
Sequence (Q00535 whole entry): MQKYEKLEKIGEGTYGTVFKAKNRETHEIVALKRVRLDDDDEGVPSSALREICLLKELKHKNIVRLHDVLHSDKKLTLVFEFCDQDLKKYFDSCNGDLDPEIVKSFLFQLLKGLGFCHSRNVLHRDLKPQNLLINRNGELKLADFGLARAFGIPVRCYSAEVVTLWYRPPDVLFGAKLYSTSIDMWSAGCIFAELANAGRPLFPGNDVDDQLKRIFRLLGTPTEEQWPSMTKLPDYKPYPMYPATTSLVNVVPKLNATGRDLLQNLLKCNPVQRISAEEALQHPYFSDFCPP
Sequence (Q15078 99-307 partner limits assumed): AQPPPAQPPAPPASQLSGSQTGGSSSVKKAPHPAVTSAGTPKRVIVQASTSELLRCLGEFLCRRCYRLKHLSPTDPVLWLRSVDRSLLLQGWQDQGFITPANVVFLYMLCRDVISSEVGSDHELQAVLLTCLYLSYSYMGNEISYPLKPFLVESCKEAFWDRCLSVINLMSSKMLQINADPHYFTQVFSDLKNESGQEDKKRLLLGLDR
Assay: In vitro IC50 profile for CDKs family kinase (33PanQinase radiometric assay)
Details: CDK7 selectivity profile in CDKs family
value_type: IC50

Consider the molecule shown here: CC(C)c1cnn2c(NCc3c(Cl)cccc3-n3ccc(C(C)(C)O)n3)nc(N3CCC(N)CC3)nc12 What is its recorded IC50?
> 10 µM

###

Tested on: A2780
Assay: Cellular A2780 viability assay (CellTiter-Glo, 72 hours)
Format: cell-based
Conditions: Homo sapiens
pIC50: −log10 of the molar value.
value_type: pIC50

// below: answered compounds
[[record]]
chem_smiles = "CC(C)c1cnn2c(NCc3c(Cl)cccc3-n3ccc(C(C)(C)O)n3)nc(Nc3cc[nH]c3)nc12"
value_type = "pIC50"
obs_value = "< 5.00"

[[record]]
chem_smiles = "CC(C)c1cnn2c(NCc3ccccc3-c3ccc4ccccc4n3)nc(NC[C@@H](O)CN)nc12"
value_type = "pIC50"
obs_value = "≥ 6.00"


Kindly review the next compound as well.
Consider the compound shown here: CC(C)c1cnn2c(NCc3ccccc3-c3ccc4ccccc4n3)nc(N3CCC(N)CC3)nc12 What is its recorded pIC50?
≥ 6.00
